test system: CCRIS mutagenicity, Ames/micronucleus/aberration tests; assay: CCRIS mutagenicity studies; settings: Test System: AMES SALMONELLA TYPHIMURIUM; Strain/Indicator: TA98; Metabolic Activation: RAT, LIVER, S-9, KANECHLOR 500; Method: PREINCUBATION
The source made the active and inactive calls. No rule for the calls is given here.
Measured Metric: mutagenic call

GET /values?readout=mutagenic call&item= C[N+](=O)[O-]
inactive; negative

Fill blank: measured mutagenic call of the compound CCCC[N+](=O)[O-] is ____.
inactive; negative

Which mutagenic call reading was recorded for the compound Cc1cc(C)cc([N+](=O)[O-])c1 ?
inactive; negative
